# Tested on: IL-1β
# test_name: IL-1β inhibitory activity
# Format: cell-based
Overview of reported pEC50 across a group of compounds:
The meaning of pEC50 here: minus log10 of the concentration in molar units.

Solved entries:
CCCCCc1cc(OC(C)=O)c(C/C=C(\C)CCC=C(C)C)c(O)c1OC(C)=O; 6.05
CCCCCC1=C(NC)C(=O)C(C/C=C(\C)CCC=C(C)C)=C(O)C1=O; 6.92

# input for lookup
Query string: Kindly state the measured pEC50 obtained for CCCCCc1cc(O)c(C/C=C(\C)CCC=C(C)C)c(O)c1O with IL-1β.
Result string: 6.05

* * *

# test_target: cannabinoid receptor 1 (CNR1) (Homo sapiens, UniProt P21554)
# Sequence (P21554 whole entry): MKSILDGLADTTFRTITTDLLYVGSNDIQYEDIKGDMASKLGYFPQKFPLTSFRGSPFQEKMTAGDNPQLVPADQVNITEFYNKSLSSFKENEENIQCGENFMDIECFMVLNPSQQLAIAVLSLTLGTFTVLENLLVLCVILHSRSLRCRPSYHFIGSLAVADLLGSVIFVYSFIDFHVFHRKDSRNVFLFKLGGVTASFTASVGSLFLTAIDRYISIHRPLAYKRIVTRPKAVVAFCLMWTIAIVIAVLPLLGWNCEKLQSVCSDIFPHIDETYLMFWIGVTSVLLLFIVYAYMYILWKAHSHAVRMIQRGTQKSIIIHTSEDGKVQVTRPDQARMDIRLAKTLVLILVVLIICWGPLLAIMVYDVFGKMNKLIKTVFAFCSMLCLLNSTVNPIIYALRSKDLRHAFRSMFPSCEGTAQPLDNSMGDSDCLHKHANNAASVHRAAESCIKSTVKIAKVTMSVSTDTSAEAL
# test_name: CB1 receptor agonist assay (cAMP Hunter eXpress, CNR1 CHO-K1 cells)
# test_settings: agonist mode, Forskolin-stimulated cAMP
assay_readout: pIC50
The meaning of pIC50 here: minus log10 of the concentration in molar units.

Query string: Could you share which pIC50 value was measured for CCCCCc1cc(O)c2c(c1)OC(C)(C)C1CCC(CO)=CC21 (stereo not shown) [11-hydroxy-THC] ?
Result string: 9.00

* * *

# Tested on: IFNgamma
# test_name: IFNgamma secretion assay in human PBMCs (PHA-M, ELISA)
# Type: cell-based
# test_settings: PBMC; human PBMCs, PHA-M 10 ug/mL 40 hr; read-out: Inhibitory Activity EC50, IFNγ
assay_readout: EC50 (nM)
Write the number in nM without appending the unit.

Solved entries:
CCCCCc1cc(OC(C)=O)c(C/C=C(\C)CCC=C(C)C)c(O)c1OC(C)=O; 1130
CCCCCc1cc(OC)c(C/C=C(\C)CCC=C(C)C)c(O)c1OC; 4100

# input for lookup
Query string: Could you share which EC50 value was measured for CCCCCC1=C(NC)C(=O)C(C/C=C(\C)CCC=C(C)C)=C(O)C1=O ?
Result string: 2510

* * *

# test_target: cannabinoid receptor 2 (CNR2) (Homo sapiens)
# Sequence (P34972 whole entry): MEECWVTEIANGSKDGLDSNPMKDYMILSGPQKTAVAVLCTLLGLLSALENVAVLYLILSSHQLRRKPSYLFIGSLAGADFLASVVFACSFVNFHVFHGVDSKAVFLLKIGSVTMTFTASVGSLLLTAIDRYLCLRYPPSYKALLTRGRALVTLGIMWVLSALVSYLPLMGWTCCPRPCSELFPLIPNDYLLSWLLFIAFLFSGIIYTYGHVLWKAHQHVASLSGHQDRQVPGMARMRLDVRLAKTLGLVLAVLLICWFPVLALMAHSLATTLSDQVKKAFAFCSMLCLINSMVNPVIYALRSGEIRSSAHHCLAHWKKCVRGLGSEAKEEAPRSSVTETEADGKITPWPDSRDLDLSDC
# test_name: CB2 receptor agonist assay (cAMP Hunter eXpress, CNR2 CHO-K1 cells)
# test_settings: agonist mode, Forskolin-stimulated cAMP, CNR2 CHO-K1 cells
assay_readout: IC50 (nM)
Write the number in nM without appending the unit.

Query string: Kindly state the measured IC50 obtained for CCCCCc1cc(O)c2c(c1)OC(C)(C)C1CCC(CO)=CC21 (stereo not shown) [11-hydroxy-THC] with cannabinoid receptor 2 (CNR2) (Homo sapiens).
Result string: 51

* * *

# System: TNFa
# test_name: TNFa secretion assay in human PBMCs (LPS, ELISA)
# Type: cell-based
# test_settings: Homo sapiens, PBMC, 6 h, read-out: Inhibitory Activity EC50, TNF
assay_readout: pEC50
The meaning of pEC50 here: minus log10 of the concentration in molar units.

Query string: Could you share which pEC50 value was measured for CCCCCc1cc(O)c(C/C=C(\C)CCC=C(C)C)c(O)c1O ?
Result string: 5.21
